Target: T1, MMP-3 (UniProt P08254 100-477, limits assumed)
T1 construct: also called matrix metalloproteinase-3
T1 sequence (P08254 100-477 limits assumed): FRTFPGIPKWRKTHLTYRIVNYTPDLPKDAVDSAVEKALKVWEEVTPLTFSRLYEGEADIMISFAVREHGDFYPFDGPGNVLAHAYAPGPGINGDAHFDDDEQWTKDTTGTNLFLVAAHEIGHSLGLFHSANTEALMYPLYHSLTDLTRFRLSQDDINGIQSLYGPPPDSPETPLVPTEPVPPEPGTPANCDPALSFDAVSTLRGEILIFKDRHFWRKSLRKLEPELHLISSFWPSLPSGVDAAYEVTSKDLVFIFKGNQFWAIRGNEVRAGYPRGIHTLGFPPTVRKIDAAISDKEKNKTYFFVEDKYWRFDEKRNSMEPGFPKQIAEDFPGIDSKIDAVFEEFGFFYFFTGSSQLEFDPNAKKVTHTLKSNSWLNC
Assay: enzyme inhibition, FRET peptide substrate
Measurement Name: Ki
Reply with the number, then its unit.

Ask: Quick one: give measured Ki for H-PRCGNPDVANYNFFPRKPK-OH (Synthesized by Sigma-Genosys, >95% pure by RP-HPLC; Free termini; the acetylated/amidated Ac-19-mer was used only in migration assays; also called 19mer peptide) [19-mer (SEQ ID NO:11) PRCGNPDVANYNFFPRKPK]
Result: 6.4 µM
